- Assay Explanation: in vivo
- Measurement Conditions: male, C57BL/6J, mouse, po, 20 mg/kg
Positions of bridges follow the written chain, without caps; N, C: chain ends. Non-standard residues stand in square brackets, D forms with d. Residues, ends and D or L forms follow the SMILES beside them. *: point of attachment. NMeF = CN[C@@H](Cc1ccccc1)C(=O)O; NMeI = CC[C@H](C)[C@H](NC)C(=O)O; NMeL = CN[C@@H](CC(C)C)C(=O)O; NMeV = CN[C@H](C(=O)O)C(C)C; NMeA = CN[C@@H](C)C(=O)O; Piperidide = C1CCN(*)CC1; Sar = CNCC(=O)O; tBu = CC(C)(C)*
Listing: AUC of selected compounds
Kindly answer with a numeric value in ng·h/mL, unit omitted.

# count of solved cases: 2
- Compound: "CC[C@H](C)[C@H]1C(=O)N[C@@H](COC(C)(C)C)C(=O)N(C)[C@@H](Cc2ccccc2)C(=O)N(C)[C@@H](C(C)C)C(=O)N[C@H](C(=O)N2CCCCC2)CC(=O)N(C)[C@@H](C)C(=O)N(C)[C@@H](Cc2ccccc2)C(=O)N[C@@H](CC(C)C)C(=O)N(C)[C@@H](CC(C)C)C(=O)N[C@@H]([C@@H](C)O)C(=O)N(C)CC(=O)N1C [DP-47] ([NMeA][NMeF]L[NMeL]T[Sar][NMeI]S(tBu)[NMeF][NMeV]D-Piperidide; lactam N-11)"
  Unit Descriptor: "ng·h/mL"
  Recorded Number: 38000
- Compound: "CC[C@H](C)[C@H]1C(=O)N[C@@H]([C@@H](C)O)C(=O)N(C)CC(=O)N(C)[C@@H](CC(C)C)C(=O)N[C@H](C(=O)N2CCCCC2)CC(=O)N(C)[C@@H](C)C(=O)N[C@@H](CC(C)C)C(=O)N(C)[C@@H](CC(C)C)C(=O)N(C)[C@@H](Cc2ccccc2)C(=O)N[C@@H](C)C(=O)N(C)[C@@H](Cc2ccccc2)C(=O)N1C [DP-101] ([NMeA]L[NMeL][NMeF]A[NMeF][NMeI]T[Sar][NMeL]D-Piperidide; lactam N-11)"
  Unit Descriptor: "ng·h/mL"
  Recorded Number: 12700

We now examine a further compound.
What value of AUC has been reported for the following compound? CC(C)C[C@H]1C(=O)N2CCC[C@H]2C(=O)N(C)[C@@H](CC(C)C)C(=O)N[C@@H](C)C(=O)N(C)[C@@H](C(C)C)C(=O)N[C@H](C(=O)N2CCCCC2)CC(=O)N(C)[C@@H](C)C(=O)N[C@@H]([C@@H](C)O)C(=O)N(C)CC(=O)N(C)[C@@H](Cc2ccccc2)C(=O)N(C)[C@@H](Cc2ccccc2)C(=O)N1C [DP-67] ([NMeA]T[Sar][NMeF][NMeF][NMeL]P[NMeL]A[NMeV]D-Piperidide; lactam N-11)
10900

----------
- Assay Explanation: Serum stability test in mouse serum
- Assay type: in vitro ADME
- Measurement Conditions: both sexes, pH 7.4, two hours, read-out: Serum stability t1/2 (Mouse)
Positions of bridges follow the written chain, without caps; N, C: chain ends. Non-standard residues stand in square brackets, D forms with d. Residues, ends and D or L forms follow the SMILES beside them. *: point of attachment. Bip = N[C@@H](Cc1ccc(-c2ccccc2)cc1)C(=O)O; NMeF = CN[C@@H](Cc1ccccc1)C(=O)O; NMeI = CC[C@H](C)[C@H](NC)C(=O)O; NMeL = CN[C@@H](CC(C)C)C(=O)O; NMeA = CN[C@@H](C)C(=O)O; Piperidide = C1CCN(*)CC1; Sar = CNCC(=O)O; tBu = CC(C)(C)*
Listed here are compounds together with their documented half-life at 2 uM.

- Compound: "CC[C@H](C)[C@H]1C(=O)N[C@@H](Cc2ccc(-c3ccccc3)cc2)C(=O)N[C@H](C(=O)N2CCCCC2)CSCC(=O)N(C)[C@@H](CC(C)C)C(=O)N[C@@H]([C@@H](C)O)C(=O)N(C)CC(=O)N(C)[C@@H](CC(C)C)C(=O)N[C@@H](CO)C(=O)N1C [Compound P-104] ({CH2CO}-[NMeL]T[Sar][NMeL]S[NMeI][Bip]C-Piperidide; thioether N-8)"
  half-life at 2 uM: "> 60 h"
- Compound: "CC(C)C[C@H]1C(=O)N[C@@H](COC(C)(C)C)C(=O)N[C@H](C(=O)N2CCCCC2)CSCC(=O)N(C)[C@@H](C)C(=O)N(C)[C@@H](Cc2ccccc2)C(=O)N(C)[C@@H](CC(C)C)C(=O)N[C@@H]([C@@H](C)O)C(=O)N(C)CC(=O)N1C [Compound P-102] ({CH2CO}-[NMeA][NMeF][NMeL]T[Sar][NMeL]S(tBu)C-Piperidide; thioether N-8)"
  half-life at 2 uM: "> 60 h"

Would you kindly share the measured half-life at 2 uM for CC[C@H](C)[C@H]1C(=O)N[C@H](C(=O)N2CCCCC2)CSCC(=O)N[C@@H](Cc2ccccc2)C(=O)N(C)[C@@H](CC(C)C)C(=O)N[C@@H]([C@@H](C)O)C(=O)N(C)CC(=O)N(C)[C@@H](CC(C)C)C(=O)N[C@@H](COC(C)(C)C)C(=O)N1C [Compound P-107] ({CH2CO}-F[NMeL]T[Sar][NMeL]S(tBu)[NMeI]C-Piperidide; thioether N-8) ?
> 60 h
